Assay: Cytotoxicity against CHOK1 cells
Type: cell-based, Cricetulus griseus
Settings: chinese hamster, CHO-K1 cells; read-out: ED50 (the source's name)
Each entry below carries its reported CC50.
measured.endpoint: CC50 (µg/mL)

>>> meas_value("CC(=O)O[C@H]1[C@@H]2[C@@H]3[C@@H](C[C@H]1C)[C@@H](C)CO[C@@]1(C)CC/C=C(/C)C[C@@H]2O[C@@H]31")
4.82
>>> meas_value("CCCC(=O)O[C@H]1[C@@H]2[C@@H]3[C@@H](C[C@H]1C)[C@@H](C)CO[C@@]1(C)CC/C=C(/C)C[C@@H]2O[C@@H]31")
3.55
>>> meas_value("CC(=O)O[C@H]1[C@@H]2[C@@H]3[C@@H](C[C@H]1C)[C@@H](C)CO[C@@]1(C)CC/C=C(\\C)C[C@@H]2O[C@@H]31 [11-ACETOXY-4-DEOXYASBESTININ B]")
2.5
>>> meas_value("CCCC(=O)O[C@H]1[C@@H]2[C@@H]3[C@@H](C[C@H]1C)[C@@H](C)CO[C@@]1(C)CC/C=C(\\C)C[C@@H]2O[C@@H]31 [4-DEOXYASBESTININ A]")
3.35
